Source: patent US12365667B2

Tested on: IFNα-induced STAT phosphorylation (pSTAT5) in human whole blood
method.summary: IFNα-Induced STAT Phosphorylation in Human Whole Blood
Format: cell-based
experimental.parameters: Homo sapiens, 1 h incubation with compound, 1000 U/mL recombinant human IFNα A/D for 15 min, pSTAT5 in CD3 positive population, read-out: IFNα-Induced Stat Phosph. (IC50)
pIC50: −log10 of the molar value.
Output criterion met for pIC50 not less than 7; output criterion not met otherwise.

                                   molecule                     target_or_test_system        group_label
0  [2H]C([2H])([2H])NC(=O)c1nnc(Nc2ccc(C(C)(C)NC(C)C)cn2)cc1Nc1ncccc1S(C)(=O)=O [Example 169]  IFNα-induced STAT phosphorylation (pSTAT5) in human whole blood      criterion met
1  [2H]C([2H])([2H])NC(=O)c1nnc(NC(=O)[C@@H]2CC23CC3)cc1Nc1ncccc1S(C)(=O)=O [Example 252]  IFNα-induced STAT phosphorylation (pSTAT5) in human whole blood      criterion met
2  [2H]C([2H])([2H])NC(=O)c1nnc(NC(=O)CC)cc1Nc1nc(OC)ccc1S(C)(=O)=O [Example 199]  IFNα-induced STAT phosphorylation (pSTAT5) in human whole blood  criterion not met
3  [2H]C([2H])([2H])NC(=O)c1nnc(Nc2ccc(C(C)C)nn2)cc1Nc1ncccc1S(C)(=O)=O [Example 247]  IFNα-induced STAT phosphorylation (pSTAT5) in human whole blood      criterion met

Pending molecule:
Could you please find out whether [2H]C([2H])([2H])NC(=O)c1nnc(Nc2ccc(C(C)(C)O)cc2)cc1Nc1nc(C2CC2)ccc1S(C)(=O)=O [Example 207] has pIC50 that meets 7 or exceeds it?
criterion not met
